Data origin, for the record: patent US5312816A

Provide the reported pIC50 of each item.
Test system: Trypsin
TEST_NAME: Human osteoporosis fibroblasts trypsin (BAEE) activity
Format: cell-based
ASSAY_SETUP: read-out: Trypsin BAEE IC50; Table XI; human osteoporosis fibroblasts, 60 min incubation
Scale: pIC50 equals -log10([C]), with [C] in mol/L.

Prompt: Look up pIC50: C[N+](C)(C)[BH2-]C#N [Compound 2, Trimethylamine-cyanoborane]
Completion: 5.40

Prompt: Field entry: C[NH+](C)[BH2-]C#N [Compound 10, Dimethylamine-cyanoborane]
Completion: 5.19

Prompt: Request: C[B-](C#N)(C#N)[N+](C)(C)C [Compound 16, Trimethylamine-methyldicyanoborane]
Completion: 5.47

Prompt: Here is the next compound: [BH3-][NH+]1CCOCC1 [Compound 1, Morpholine-borane]
Completion: 5.10
